Recorded values, source patent US20120316071A1.

# EXPERIMENTAL_TARGET: T1, Recombinant Human DLL4 (delta-like protein 4) (human, UniProt Q9NR61 27-524)
# T1 construct: Bought recombinant human DLL4 (R&D Systems Cat#1506-D4/CF) coated on the ELISA plate; also called rHuman DLL4; Delta-like ligand 4
# PROTOCOL_DESCRIPTION: ELISA, DLL4 coated on plate, 100 nM Fab
MEASURED_PARAMETER: ELISA Signal-blank (100 nM Fab)
Answer field: number only, no words.

The reported value for Fab VH5-51_IGHD5-18*01>3_IGHJ4*01 G100K/G104T G24T/S28R/G35V (H:KT TRV) & V3-4_IGLJ1*01 V91L/S96P S57Y (Fab, V domains shown, Fab made in E. coli: VH in plasmid A (CH1, His6 and Flag tags), VL in plasmid E (lambda CL); also called H:KT TRV & L:LP S57Y) VH: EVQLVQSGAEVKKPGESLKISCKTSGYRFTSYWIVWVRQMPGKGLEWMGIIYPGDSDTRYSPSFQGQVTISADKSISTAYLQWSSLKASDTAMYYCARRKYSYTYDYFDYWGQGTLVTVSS VL: QTVVTQEPSFSVSPGGTVTLTCGLSSGSVSTSYYPSWYQQTPGQAPRTLIYSTNTRYSGVPDRFSGSILGNKAALTITGAQADDESDYYCLLYMGPGISYVFGTGTKVTVL in terms of ELISA Signal-blank (100 nM Fab) is 0.28
